# maps each entry to its kon
Molecular target: human Nectin-4 (protein used in the SPR affinity measurements) (human) (UniProt Q96NY8)
Sequence (Q96NY8 32-349 limits assumed): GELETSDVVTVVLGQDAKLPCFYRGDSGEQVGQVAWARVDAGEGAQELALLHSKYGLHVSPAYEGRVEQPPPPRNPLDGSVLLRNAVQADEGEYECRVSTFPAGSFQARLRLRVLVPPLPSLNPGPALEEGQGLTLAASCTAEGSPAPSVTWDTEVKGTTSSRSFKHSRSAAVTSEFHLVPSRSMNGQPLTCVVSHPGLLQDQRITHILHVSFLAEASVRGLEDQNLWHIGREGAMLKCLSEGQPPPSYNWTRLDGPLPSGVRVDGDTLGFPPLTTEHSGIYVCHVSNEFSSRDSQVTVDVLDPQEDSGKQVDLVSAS
Assay: SPR, human IgG1

H3L1 (antibody, human IgG1, V domains shown, human IgG1 isotype) VH: QVQLVQSGAEVKKPGASVKVSCKASGYIFTSYWMHWVRQAPGQGLEWMGEIDPSDSYTNYNQKFKGRVTMTLDKSTSTTYMELSSLRSEDTAVYYCARGYGNYGDYWGQGTLVTVSS VL: DVVMTQSPLSLPVTPGEPASISCRSSKSLLHSNGITYLYWYLQKPGQSPQLLIYQMSNLASGVPDRFSSSGSGTDFTLKISRVEAEDVGVYYCAQNLELPWTFGGGTKVEIK: 400000 M⁻¹ s⁻¹

Which kon is reported for this binder? H2L0 (antibody, human IgG1, V domains shown, human IgG1 isotype) VH: QVQLVQSGAEVKKPGASVKVSCKASGYTFTSYWMHWVRQAPGQGLEWMGEIDPSDSYTNYNQKFKGRVTMTLDKSTSTTYMELSSLRSEDTAVYYCARGYGNYGDYWGQGTLVTVSS VL: DIVMTQSPLSLPVTPGEPASISCRSSKSLLHSNGITYLYWYLQKPGQSPQLLIYQMSNLASGVPDRFSGSGSGTDFTLKISRVEAEDVGVYYCAQNLELPWTFGGGTKVEIK
130000 M⁻¹ s⁻¹

Where do the numbers come from? From patent US20250297004A1.
